Just for reference, patent US8134015B2 is where these values come from.

- target of assay: rat NaPi-2b (Rattus norvegicus)
- Sequence (Q9JJ09 1-695): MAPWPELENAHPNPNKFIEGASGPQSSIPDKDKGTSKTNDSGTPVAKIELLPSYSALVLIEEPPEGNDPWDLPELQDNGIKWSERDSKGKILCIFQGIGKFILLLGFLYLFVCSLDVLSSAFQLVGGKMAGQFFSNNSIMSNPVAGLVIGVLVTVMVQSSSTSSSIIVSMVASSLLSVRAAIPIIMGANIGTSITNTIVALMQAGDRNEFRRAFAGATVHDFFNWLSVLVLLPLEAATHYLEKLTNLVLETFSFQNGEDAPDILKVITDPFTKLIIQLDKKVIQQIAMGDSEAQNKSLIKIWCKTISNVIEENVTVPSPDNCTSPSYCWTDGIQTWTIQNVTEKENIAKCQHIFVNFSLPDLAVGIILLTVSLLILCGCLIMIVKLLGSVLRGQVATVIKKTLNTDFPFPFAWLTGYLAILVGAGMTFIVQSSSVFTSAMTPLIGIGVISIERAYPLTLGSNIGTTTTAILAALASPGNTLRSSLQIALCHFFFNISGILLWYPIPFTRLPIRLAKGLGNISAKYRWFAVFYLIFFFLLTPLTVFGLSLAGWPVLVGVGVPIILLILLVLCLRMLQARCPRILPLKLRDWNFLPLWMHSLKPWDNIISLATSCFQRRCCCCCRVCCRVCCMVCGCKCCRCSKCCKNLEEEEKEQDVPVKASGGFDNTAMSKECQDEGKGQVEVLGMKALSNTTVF
- assay procedure: Sodium-dependent phosphate uptake of Xenopus oocytes which expressed NaPi-2b (32P)
- test conditions: Xenopus oocytes expressing rat NaPi-2b, 32P radioactive phosphorus; read-out: IC50 (phosphate uptake inhibitory activity)
measurement kind: IC50 (nM)
Use nM as the unit, but write only the number.

Please give measured IC50 of the following entry: Cc1cccc(/C=N/NC(=O)c2cc(Br)ccc2NC(=O)c2ccco2)c1 [Compound 153]
3500

Please list IC50 recorded for the molecule CCN(CC)CCN(C)Cc1cccc(C(=O)Nc2ccc(N3CCCCC3)cc2C(=O)N/N=C/c2ccc(C)cc2)c1 [Compound 859]
390

Identify measured IC50 corresponding to CCN(CC)CCNCc1ccc(C(=O)Nc2ccc(Br)cc2C(=O)N/N=C/c2ccc(Cl)c(C(F)(F)F)c2)cc1 [Compound 297]
960
